- System: VDR homodimer (NR concentration 270 nM)
- protocolSummary: PBM binding z-score (relative to random genomic background probes); higher = stronger binding; sequences stand for … in GC…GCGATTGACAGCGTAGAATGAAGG
Quick rule: PBM binding z-score of at least 1 means condition met, below that means condition not met.

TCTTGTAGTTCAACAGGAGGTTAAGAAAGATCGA : condition met
TCTATTAGTTGAAGGGCAACCGACGAGTCCGTTT : condition met

Query: Hi team, for ATCTCTAGGTAAGACTCGGTTCAGTGAAGAACGC , is the recorded PBM binding z-score at or above 1?
Reply: condition met

Query: Hi team, for CCAACTAGGTCACCGGAAGGTCAAAGTCCGCATG , is the recorded PBM binding z-score at or above 1?
Reply: condition met

Query: Hi team, for CTAGACAGGTGAGAAGGTAACTCAGCCTCGATTA , is the recorded PBM binding z-score at or above 1?
Reply: condition not met

Query: Hi team, for TCGAGTAGGTTGCCAATGGGGCATTCAGCTTTCT , is the recorded PBM binding z-score at or above 1?
Reply: condition not met

###

- Tested on: LXRa homodimer (NR concentration 270 nM)
- protocolSummary: PBM binding z-score (relative to random genomic background probes); higher = stronger binding; sequences stand for … in GC…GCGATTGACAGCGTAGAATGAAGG
Label scheme for PBM binding z-score: 1: < -0.4; 2: ≥ -0.4 and < 0.4; 3: ≥ 0.4

Previously resolved entries follow.
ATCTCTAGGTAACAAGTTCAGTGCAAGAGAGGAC : 3
TCTAGTTGGTCAAAGGTCACTCACTCGAAATGCG : 3
CGTCCAAGTTCAAGGTCAGTGAAAGAGACTCGAA : 3

Query: Hey, which category is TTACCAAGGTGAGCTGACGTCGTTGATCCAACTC in, do you know?
Reply: 1

Query: Hey, which category is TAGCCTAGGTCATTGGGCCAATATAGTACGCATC in, do you know?
Reply: 3

Query: Hey, which category is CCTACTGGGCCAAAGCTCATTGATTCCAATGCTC in, do you know?
Reply: 1

Query: Hey, which category is AATACAGGGTCATGGTAGGCCAGAGTACGCACAG in, do you know?
Reply: 3

Query: Hey, which category is ACAGACAGGTGATGAAAGTAACTCAGGCTATCAT in, do you know?
Reply: 2

Query: Hey, which category is AGAACGAGGGCACTGAGTTGATAGCACGGGTGGC in, do you know?
Reply: 2

Query: Hey, which category is CGTCAAAGTTCAGCTAAGGTAACGTAAAGCACGC in, do you know?
Reply: 3

###

- System: RARg:RXRa (NR concentration 270 nM, RXRa partner concentration 90 nM)
- protocolSummary: PBM binding z-score (relative to random genomic background probes); higher = stronger binding; sequences stand for … in GC…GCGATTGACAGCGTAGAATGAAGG
Quick rule: PBM binding z-score of at least 1 means yes, below that means no.

GCTAATAGTTGAAAGGGCAACCGAATGATTCTCG : yes
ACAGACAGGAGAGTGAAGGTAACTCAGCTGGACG : no
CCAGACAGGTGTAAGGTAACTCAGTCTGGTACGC : no

Query: Hi team, for GCTCGGCGGACAAGGTCAGAGCTTTGTCCGTAGA , is the recorded PBM binding z-score at or above 1?
Reply: yes

Query: Hi team, for TCAAGTAGGTTACCAATGGGGCATTCAGCTTTCT , is the recorded PBM binding z-score at or above 1?
Reply: yes

Query: Hi team, for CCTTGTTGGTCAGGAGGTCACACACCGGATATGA , is the recorded PBM binding z-score at or above 1?
Reply: yes

Query: Hi team, for CGTCCAACGTCATAGGAGGTCAGTGAAGACAGAT , is the recorded PBM binding z-score at or above 1?
Reply: yes

Query: Hi team, for TAGCCTAGGTCAGTCAGGGGCCAGTATAGAAAGC , is the recorded PBM binding z-score at or above 1?
Reply: yes

Query: Hi team, for GCTTACGCGTCAAAGGTTATAGCATGAATAGAAT , is the recorded PBM binding z-score at or above 1?
Reply: yes

Query: Hi team, for TCTTGTAGATCAGCAGGTTAATAAAGCTGGCCAA , is the recorded PBM binding z-score at or above 1?
Reply: no

Query: Hi team, for ATCGAAAAGTCGAGGTGAGTATAGAGAAAGGGAA , is the recorded PBM binding z-score at or above 1?
Reply: no

Query: Hi team, for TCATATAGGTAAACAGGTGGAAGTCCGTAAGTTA , is the recorded PBM binding z-score at or above 1?
Reply: no

Query: Hi team, for TATACCGGGTCAAAGGCCAGAGTACGAATGTCGA , is the recorded PBM binding z-score at or above 1?
Reply: yes

Query: Hi team, for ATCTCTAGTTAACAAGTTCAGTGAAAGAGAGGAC , is the recorded PBM binding z-score at or above 1?
Reply: yes

Query: Hi team, for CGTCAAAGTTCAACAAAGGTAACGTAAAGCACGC , is the recorded PBM binding z-score at or above 1?
Reply: yes

Query: Hi team, for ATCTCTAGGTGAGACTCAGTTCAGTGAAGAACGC , is the recorded PBM binding z-score at or above 1?
Reply: no
